B1: RAB40A (parent)
chain: NWLGRPSKVLSLQDLCCRTIVSCT

# Variants of: B1
# Experiment Notes: protein stability index of a GFP-peptide fusion (GPS, HEK-293T) (PSI 1-6); higher = more stable;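 note: lentivirally expressed fusions sorted by FACS into six bins by GFP to DsRed ratio, PSI derived from sequencing read proportions per bin multiplied by bin number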
# Condition Summary: c terminus: a fixed tail appended
Threshold rule: protein stability index greater than or equal to 2 is Yes; below that, No.

Illustrative cases are given below, each with its answer.
[
  {
    "Mutant Label": "N1M",
    "Class Name": "No"
  },
  {
    "Mutant Label": "V21T",
    "Class Name": "Yes"
  },
  {
    "Mutant Label": "L15F",
    "Class Name": "No"
  },
  {
    "Mutant Label": "T19Y",
    "Class Name": "Yes"
  },
  {
    "Mutant Label": "L10Q",
    "Class Name": "Yes"
  },
  {
    "Mutant Label": "P6Q",
    "Class Name": "Yes"
  },
  {
    "Mutant Label": "L12I",
    "Class Name": "Yes"
  },
  {
    "Mutant Label": "C16I",
    "Class Name": "Yes"
  },
  {
    "Mutant Label": "P6W",
    "Class Name": "Yes"
  },
  {
    "Mutant Label": "S22E",
    "Class Name": "Yes"
  }
]

Request: Hi team, for Q13D , is the recorded protein stability index at or above 2?
Result: No

Request: Determine whether measured protein stability index meets or exceeds 2 for G4M
Result: Yes
